Attribution: PubChem BioAssay AID1490

Entries annotated with measured largest response in the series, negative = inhibition
targetSystem: 4'-phosphopantetheinyl transferase ffp (Bacillus subtilis)
protocolSummary: qHTS Assay for Inhibitors of Bacillus subtilis Sfp phosphopantetheinyl transferase (PPTase);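 note: the enzyme is Sfp with the accession as filed and its product quenches rhodamine fluorescence; 0% = enzyme reaction without inhibitor and -100% = no enzyme wells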
measurementSetup: Biochemical Sfp PPTase activity
Hit rate of the full screen: of about 310,000 compounds, about 11,000 (3.5%) were called active. Roughly 4% stayed inconclusive and do not appear here. This excerpt belongs to a sample that is enriched for actives.
parameter: largest response in the series, negative = inhibition (%)

{"compound": "CCc1nc(Nc2ccc(NC(C)=O)cc2)c2oc3ccccc3c2n1", "scaleUnit": "%", "reportedValue": 3.27}
{"compound": "CC(=O)NC(C)c1nc2ccccc2n1Cc1ccccc1F (stereo not given)", "scaleUnit": "%", "reportedValue": 11}
{"compound": "Cc1ccc(-n2c(C)nnc2SCC(=O)NC2CC2)cc1", "scaleUnit": "%", "reportedValue": 4.57}
{"compound": "O=C(N/C(=C\\c1ccc(O)cc1)C(=O)N1CCCCC1)c1ccccc1", "scaleUnit": "%", "reportedValue": 11.6}
{"compound": "O=S(=O)(c1ccccc1)N(Cc1cccc(F)c1)c1ccccc1", "scaleUnit": "%", "reportedValue": 13.8}
{"compound": "CC(=O)c1ccc(N2CCN(C(=O)C3CCN(S(=O)(=O)c4ccc5c(c4)CC(C)N5C(=O)C4CC4)CC3)CC2)cc1 (stereo not given)", "scaleUnit": "%", "reportedValue": -0.0372}
{"compound": "CCOC(=O)C1(C)NC(c2ccco2)C2C(=O)N(c3ccccc3)C(=O)C21 (stereo not given)", "scaleUnit": "%", "reportedValue": 27.2}
{"compound": "CCOc1cc(C(=S)N2CCOCC2)ccc1OS(=O)(=O)c1ccc(Br)cc1", "scaleUnit": "%", "reportedValue": 22.9}
{"compound": "Cc1cc(C)c(C#N)c(N2CCC(C(N)=O)CC2)n1", "scaleUnit": "%", "reportedValue": 15.7}
{"compound": "CN(C(=O)COC(=O)CNC(=O)C12CC3CC(CC(C3)C1)C2)c1ccccc1", "scaleUnit": "%", "reportedValue": 0.528}
